- Test Name: ATG_PXRE_CIS: Attagene CIS-FACTORIAL HepG2 Assay for human Pregnane X Receptor Element (PXRE) (AID 2282957)
- Experimental Setup: HepG2 Attagene CIS-FACTORIAL PXRE reporter, mRNA; actives raise or lower the signal
Activity calls are given as the source filed them. How the source made its calls: active means hit-call score of the fitted dose curve at least 0.9, where 1 is the maximum; inactive means score below 0.9.
Outcomes: Y for active, N for inactive

1) CC(C)c1ccc(C#N)cc1; N
2) NCCCN1CCN(CCCN)CC1; Y
3) CC1=CC[C@H]2C[C@@H]1C2(C)C; N
4) CN(C)CCCN(C)C; N
5) COCCCOCCCOC; N
6) CC(C)=CCC[C@H](C)CCO; N
7) O=C(Cl)c1cc(C(=O)Cl)cc(C(=O)Cl)c1; Y
8) C=C(C)C(=O)OCCO; N
9) CCC(C)OC(=O)c1ccc(O)cc1 (stereo not drawn); Y
10) CC=CC(F)(F)C(F)(F)C(F)(F)F; N
11) CCCCCCCC[N+](C)(CCCCCCCC)CCCCCCCC; N
12) CN(C)c1ccc(N=Nc2ccccc2C(=O)O)cc1; Y
13) O=c1[nH]nc(-c2ccc([N+](=O)[O-])o2)o1; N
14) CCc1c(C(=O)O)c(=O)cnn1-c1ccc(Cl)cc1; Y
15) CC(=O)Oc1ccc(C)cc1; N
16) OC1OCCOC1O (stereo not drawn); N
17) CCN(CCO)c1cccc(C)c1; Y
18) C=C(C)[C@H]1CC=C(C)CC1; Y
19) CCCCCCCCO[C@@H]1O[C@H](CO)[C@@H](O)[C@H](O)[C@H]1O; N
20) Cc1cccc(N)n1; N
21) CC(=O)OCC(C)OC(C)=O (stereo not drawn); N
22) C=C[Si](OC(C)=O)(OC(C)=O)OC(C)=O; Y
23) CC(C)=CCCC(C)C=O (stereo not drawn); Y

###

- Test Name: ATG_Ets_CIS: Attagene CIS-FACTORIAL HepG2 Assay for human Erythroblast Transformation Specific (ETS) (AID 2282941)
- Experimental Setup: HepG2 ETS cis-reporter transcription, actives raise or lower the signal
The source made the active and inactive calls. Rule for the calls: active = hit-call score of the fitted dose curve at least 0.9, where 1 is the maximum; inactive = score below 0.9.
Outcomes: active, inactive

1. Cc1cc(=O)n(-c2ccccc2)n1C; inactive
2. O=c1[nH]nc(-c2ccc([N+](=O)[O-])o2)o1; inactive
3. C=CC(C)(CCC=C(C)C)OC(=O)CC(C)C (centres undefined); inactive
4. C=C(C)[C@H]1CC=C(C)CC1; inactive
5. O=C(O)CCCC[C@@H]1SC[C@@H]2NC(=O)N[C@@H]21; inactive
6. COC(=O)/C=C\C(=O)O; inactive
7. O=C(Nc1ccccc1SSc1ccccc1NC(=O)c1ccccc1)c1ccccc1; inactive
8. CC(=O)c1ccc2c(c1)CCCC2; inactive
9. CC(C)(C)C(=O)C=Cc1ccc(Cl)cc1; inactive
10. NNC(=O)c1cccc(C(=O)NN)c1; inactive
11. Cn1c([N+](=O)[O-])cnc1COC(N)=O; inactive
12. CCc1nccnc1C; inactive
13. CCCCC(CC)COC(=O)c1ccccc1 (centres undefined); inactive
14. O=C1OC(=O)c2cc(Oc3ccc4c(c3)C(=O)OC4=O)ccc21; inactive
15. CCCCCCCCCCCCCCCC[N+](C)(C)CC; inactive
16. Cc1cnc(NC(=O)C2=C(O)c3ccccc3S(=O)(=O)N2C)s1; inactive
17. CC=CC(F)(F)C(F)(F)C(F)(F)F; inactive
18. O=C(Nc1cccc(C(F)(F)F)c1)c1cc(Br)cc(Br)c1O; inactive
19. Oc1ccc(Cl)cc1Cc1cc(Cl)ccc1O; active
20. SCCc1cnccn1; inactive
21. O=C(O)CC(C(=O)O)C(CC(=O)O)C(=O)O (centres undefined); inactive
22. FC(F)(F)C(=NOCC1OCCO1)c1ccc(Cl)cc1; inactive
23. O=C1C=CC(=O)O1; inactive
24. Nc1ccc2cc3ccccc3cc2c1; inactive

###

- Assayed Target: human Retinoid X Receptor beta (RXRb), RXRB (gene 6257) (UniProt P28702)
- Sequence (P28702 whole entry, looked up): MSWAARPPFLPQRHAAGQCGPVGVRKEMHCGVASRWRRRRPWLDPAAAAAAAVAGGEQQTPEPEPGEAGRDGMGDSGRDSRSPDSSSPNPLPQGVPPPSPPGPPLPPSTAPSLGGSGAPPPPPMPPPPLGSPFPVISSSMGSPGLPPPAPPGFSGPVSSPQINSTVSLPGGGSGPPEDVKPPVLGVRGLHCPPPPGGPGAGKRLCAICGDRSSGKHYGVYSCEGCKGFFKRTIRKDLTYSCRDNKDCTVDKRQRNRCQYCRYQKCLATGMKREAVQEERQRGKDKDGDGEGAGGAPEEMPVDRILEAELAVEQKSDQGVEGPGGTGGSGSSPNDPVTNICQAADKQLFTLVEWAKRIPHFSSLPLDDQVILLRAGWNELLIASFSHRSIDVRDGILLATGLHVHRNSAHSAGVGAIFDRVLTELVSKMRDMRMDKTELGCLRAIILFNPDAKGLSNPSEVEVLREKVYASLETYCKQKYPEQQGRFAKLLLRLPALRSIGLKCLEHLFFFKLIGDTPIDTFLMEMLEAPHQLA
- Test Name: ATG_RXRb_TRANS: Attagene TRANS-FACTORIAL HepG2 Assay for human Retinoid X Receptor beta (RXRb) (AID 2283013)
Results filed as inconclusive are left out. Activity calls are given as the source filed them. Rule for the calls: active = hit-call score of the fitted dose curve at least 0.9, where 1 is the maximum; inconclusive = response in the unintended direction; inactive = score below 0.9.
Endpoint: AC50

1. Nc1ccc(Oc2ccc(N)c(N)c2)cc1; inactive
2. CCCCCCCCCCc1ccccc1; 49.1 µM (active)
3. CC1=Nc2ccc3ccccc3c2C1(C)C; inactive
4. CCCCC(CC)COC(=O)c1ccccc1O (stereo unspecified); inactive
5. CCCCCC/C=C/C=O; inactive
6. OCCCS; inactive
7. Oc1ccc(Cl)cc1Cc1cc(Cl)ccc1O; 6.46 µM (active)
8. Nc1ccc(Cl)cc1Cl; inactive
9. Cc1cc(=O)n(-c2ccccc2)n1C; inactive
10. CC(=O)Oc1ccc(C)cc1; inactive
11. Cc1cccc(N(C)C(=S)Oc2ccc3ccccc3c2)c1; 32.6 µM (active)

###

- Read-out: Collagen III, COL3A1 (gene 1281)
- Test Name: BSK_MyoF_CollagenIII: BioMAP Diversity Plus: MyoF Assay for Collagen III Biomarker Activity (AID 2284239)
- Experimental Setup: primary human lung fibroblasts
Activity calls are given as the source filed them. The calls were made as follows: active = hit-call score of the fitted dose curve at least 0.9, where 1 is the maximum; inactive = score below 0.9.
Outcomes: active, inactive

1. CC1OC1C1CCC2(C)OC2C1 (stereo unspecified); inactive
2. CC(C)(c1cc(Br)c(OCCO)c(Br)c1)c1cc(Br)c(OCCO)c(Br)c1; active
3. CCCCCCCCCCCCCCCC[N+](C)(C)CC; active
4. O=Nc1ccc(O)cc1; inactive
5. CCOc1nc(F)cc2nc(S(=O)(=O)Nc3c(Cl)cccc3C(=O)OC)nn12; inactive
6. N#[N+]c1ccc2c(S(=O)(=O)[O-])cccc2c1O; inactive

###

- Read-out: Plasminogen activator inhibitor-1 (PAI1), SERPINE1 (gene 5054)
- Test Name: BSK_BE3C_PAI1: BioMAP Diversity Plus: BE3C Assay for Plasminogen activator inhibitor-1 (PAI1) Biomarker Activity (AID 2283037)
- Experimental Setup: primary human bronchial epithelial cells; actives raise or lower the signal
Calls of active or inactive are those of the source. The calls were made as follows: active = hit-call score of the fitted dose curve at least 0.9, where 1 is the maximum; inactive = score below 0.9.
Outcomes: active, inactive

1) CCO[Si](C)(OCC)OCC; inactive
2) CCO[Si](CCCN=C=O)(OCC)OCC; inactive
3) O=Nc1ccc(O)cc1; inactive
4) N#[N+]c1ccc2c(S(=O)(=O)[O-])cccc2c1O; inactive
5) CCCCC/C=C\C/C=C\CCCCCCCC(=O)OC; inactive
6) c1ccc2c(c1)ccc1cc3c(ccc4ccccc43)cc12; inactive
7) C/C=C\C/C=C/CCCCCCCCOC(C)=O; inactive
8) C=CC(=O)OCC(Br)CBr (stereo unspecified); inactive
9) CCOc1nc(F)cc2nc(S(=O)(=O)Nc3c(Cl)cccc3C(=O)OC)nn12; inactive
10) CN1C(=O)N(C)C(O)C1O (stereo unspecified); inactive
11) C=CCOc1c(Br)cc(Br)cc1Br; active

###

- Read-out: Monocyte Chemoattractant Protein-1 (MCP1), CCL2 (gene 6347)
- Test Name: BSK_LPS_MCP1: BioMAP Diversity Plus: LPS Assay for Monocyte Chemoattractant Protein-1 (MCP1) Biomarker Activity (AID 2283081);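 on AC50: co-culture stimulated with LPS; secreted MCP-1 protein quantified by ELISA in culture supernatant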
- Experimental Setup: primary human HUVEC with PBMC; actives raise or lower the signal
- Method: BSK_LPS is a cell-based, multiplexed-readout assay that uses umbilical vein endothelium and peripheral blood mononuclear cells, a human vascular primary cell co-culture, with measurements taken at 24 hours after chemical dosing in a 96-well plate.BSK_LPS_MCP1 is an assay component measured in the BSK_LPS assay. It measures MCP-1 antibody related to regulation of gene expression using ELISA technology.Data from the assay component BSK_LPS_MCP1 was analyzed into 1 assay endpoint. […]
The source made the active and inactive calls. How the source made its calls: active means hit-call score of the fitted dose curve at least 0.9, where 1 is the maximum; inactive means score below 0.9.
Endpoint: AC50

1) CC(C)C(=O)C(C)C; inactive
2) c1ccc(-c2ccccn2)nc1; inactive
3) C#CC1(O)CC[C@H]2[C@@H]3CCC4=CCCC[C@@H]4[C@H]3CC[C@@]21C (stereo partly drawn); 35.7 µM (active)
4) S=C(NC1CCCCC1)NC1CCCCC1; inactive
5) C=CC(=O)OCC(Br)CBr (stereo not drawn); 30 µM (active)
6) CCCCC/C=C\C/C=C\CCCCCCCC(=O)OC; 37.1 µM (active)
7) CCCCCCCCc1ccc(Nc2ccc(CCCCCCCC)cc2)cc1; inactive
8) O=c1c2ccccc2oc2ccccc12; inactive
9) CCO[Si](C)(OCC)OCC; inactive
10) C/C=C\C/C=C/CCCCCCCCOC(C)=O; 30.5 µM (active)
11) C=CC=CC=CCCCCC; inactive
12) O=C(Cl)c1cc(C(=O)Cl)cc(C(=O)Cl)c1; 29.9 µM (active)
13) O=C(c1ccc(O)cc1)c1ccc(O)cc1O; inactive
14) CCCCNc1ccc(NCCCC)c2c1C(=O)c1ccccc1C2=O; inactive
15) CCCCCCCCCCCCCCCC[N+](C)(C)CC; 2.58 µM (active)
16) CC(C)(c1cc(Br)c(OCCO)c(Br)c1)c1cc(Br)c(OCCO)c(Br)c1; inactive
17) CCO[Si](CCCN=C=O)(OCC)OCC; inactive
18) CC1OC1C1CCC2(C)OC2C1 (stereo not drawn); inactive
